assay: NCI Yeast Anticancer Drug Screen. Data for the mec2-1 strain (AID 157); conditions: S. cerevisiae mec2-1 strain, at 50.0 µM, stronger effect = higher value
The panel holds about 79,000 compounds, 15% with a hit somewhere; the sample as a whole holds those more often.
measure: growth inhibition (%)

| compound | recorded.number |
| --- | --- |
| S=C(Sc1nc2ccccc2s1)Sc1nc2ccccc2s1 | 91.1 |
| O=[N+]([O-])c1ccc(S(=O)(=O)c2ccc(NCN3CCCCC3)cc2)cc1 | 6.2 |
| Nc1ncnc2nc[nH]c12 | -6.7 |
| O=[N+]([O-])c1cccc(N=C2c3ccccc3CN2c2cccc([N+](=O)[O-])c2)c1 | 5.8 |
| CC1=CC(/C=C(\C)CCCc2ccoc2)C2(OC(=O)C(C)=C2O)[C@H]2C1CC[C@@H]2C (stereo partly drawn) | 58.3 |
| COC1/C=C/OC2(C)Oc3c(C)c(O)c4c(O)c(c(/C=N/N(C)c5ccc([N+](=O)[O-])cc5[N+](=O)[O-])c(O)c4c3C2=O)NC(=O)C(C)=C/C=C/C(C)C(O)C(C)C(O)C(C)C(OC(C)=O)C1C (stereo not drawn) | 55.6 |
| Cc1ccc(Cl)c(NC(=O)c2ccccc2Cl)c1 | 8.2 |
| CC1CCC(O)(C(C)(C(=O)O)c2ccccc2)CC1 (stereo not drawn) | -16.8 |

----------
test: NCI Yeast Anticancer Drug Screen. Data for the rad50 strain (AID 155);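 further: 0% = growth of vehicle-only cultures of the same strain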; settings: S. cerevisiae rad50 strain growth inhibition; at 50.0 µM; stronger effect = higher value
Compounds without any hit were thinned out: in the full panel of roughly 79,000, 15% have a hit.
# growth inhibition per entry

| compound | growth inhibition / % |
| --- | --- |
| CCOc1ccccc1NC(=O)C(=O)C(/C(=N/N)C(=O)OC)c1nc2ccc([N+](=O)[O-])cc2[nH]c1=O (stereo not drawn) | 16.9 |
| CCNC(=S)Nc1ccc(Cl)cc1 | 27.2 |
| CCOC(=O)Nc1cc(Nc2ccc(Cl)cc2)c2nc(-c3ccc(Cl)cc3)c(-c3ccc(Cl)cc3)nc2n1 | 44.7 |
| O=C(O)c1ccc(C(=O)Nc2cccc3ccccc23)c(C(=O)O)c1 | -6.9 |
| O=C(COc1ccc(Cl)cc1Cl)Nc1c(Cl)cc(Cl)cc1Cl | 6.7 |
| CC12CCC(CC1)C(C)(C)N=C(N)S2 | -3.1 |
| Cc1nn(C(=O)CC(=O)Nc2ccccc2Cl)c(C)c1N=Nc1ccccc1F | -13.7 |
| COC(=O)CC1(O)C=CCCC1c1ccccc1 (stereo not drawn) | -23.2 |
| CCCCCCCCCCCCCCCCCC(C)O (stereo not drawn) | -8.7 |
| Cc1ccc(S(=O)(=O)N2CCCCC2)cc1 | -11.8 |
| Cc1cc2oc3ccccc3c(=O)c2c(C)c1Cl | -18.1 |
| NC(=O)c1ccccn1 | 20.7 |
| CCCCC(C)C(=O)CC(SCC)c1ccc(Cl)c(Cl)c1 (stereo not drawn) | 19.6 |
| CC(CCC(=O)O)[C@H]1CCC2[C@H]3C(CC(=O)[C@@]21C)[C@@]1(C)CCC(O)C[C@H]1C[C@@H]3O (stereo partly drawn) | -7.75 |
| CC(=O)[O-].Cc1ccnc(NS(=O)(=O)c2ccc(N=Cc3ccccc3[O-])cc2)n1.Cc1ccnc(NS(=O)(=O)c2ccc(N=Cc3ccccc3[O-])cc2)n1.[Cu+2] | 9 |
| O=C(Nc1cc([N+](=O)[O-])ccc1Cl)c1ccc(F)cc1 | 13.2 |
| CC1CC(=O)Oc2ccccc21 (stereo not drawn) | 35.5 |
| O=C(NCCCl)NCc1ccco1 | -6.6 |
| CC1OC(c2ccccc2)C(=O)N1C1(C)C(=O)N2CCOC21c1ccccc1 (stereo not drawn) | 8.4 |
| Cn1cc(NC(=O)c2cc(NC(=O)CCCCCC(=O)Nc3cc(C(=O)Nc4cc(C(=O)NCCC(=N)N)n(C)c4)n(C)c3)cn2C)cc1C(=O)NCCC(=N)N | -14.1 |
| Clc1cccc(C=NC23CC4CC(CC(C4)C2)C3)c1Cl | -20.2 |
| CCCC(C)C1(CC)NC(C)(C)CC(C)O1 (stereo not drawn) | 2.75 |
| N#Cc1ccc(OC(=O)Nc2ccccc2Cl)cc1 | 0.5 |

----------
assay: NCI Yeast Anticancer Drug Screen. Data for the mlh1 rad18 strain (AID 175); conditions: S. cerevisiae mlh1 rad18 strain growth inhibition; at 50.0 µM; stronger effect = higher value
Compounds without any hit were thinned out: in the full panel of roughly 79,000, 15% have a hit.
measure: growth inhibition (%)

| compound | measure | u | recorded.number |
| --- | --- | --- | --- |
| CCn1c(=O)c2[nH]c(Br)nc2n(CC)c1=O | growth inhibition | % | -9.45 |
| NC1CSc2ccccc2NC1=O (centres undefined) | growth inhibition | % | 33 |
| CN(C)c1ccc(/C=N/NS(=O)(=O)c2ccc(N)cc2)cc1 | growth inhibition | % | -12.6 |
| S=C1SCN(C2CCCCCCCCCCC2)CN1C1CCCCCCCCCCC1 | growth inhibition | % | -40.5 |
| Cc1ccc(S(=O)(=O)N2CCSCCSCCSCCN(S(=O)(=O)c3ccc(C)cc3)CC2)cc1 | growth inhibition | % | 23.1 |
| COc1ccc(N=Cc2ccc(N(CCC#N)S(=O)(=O)c3ccccc3)cc2)cc1 | growth inhibition | % | -3.15 |
| CCCCCCCCCCC#N | growth inhibition | % | -17.6 |
| CCCC#CCN(CCCC)CCCC | growth inhibition | % | -20.1 |
| COc1cc(Cl)ccc1NC(=O)Oc1ccc(C=O)cc1OC | growth inhibition | % | 10.8 |

----------
experiment: NCI Yeast Anticancer Drug Screen. Data for the bub3 strain (AID 167); conditions: S. cerevisiae bub3 mutant strain, at 50.0 µM, stronger effect = higher value
About 79,000 compounds went through this panel and 15% of them were active in at least one assay; those are over-represented in the sample as a whole.

| compound | growth inhibition / % |
| --- | --- |
| COc1c(C)c(C)c(Br)c(C)c1C | 0.55 |
| [Cl][Pt+2][Cl].[NH-]c1ccccc1F.[NH-]c1ccccc1F | -26.9 |
| CCCC(N)C(=O)NC(Cc1c[nH]c2ccccc12)C(=O)O (stereo not drawn) | 0.9 |

----------
assay: NCI Yeast Anticancer Drug Screen. Data for the rad50 strain (AID 155);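 further: 0% = growth of vehicle-only cultures of the same strain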; conditions: S. cerevisiae rad50 strain growth inhibition; at 50.0 µM; stronger effect = higher value
The panel holds about 79,000 compounds, 15% with a hit somewhere; the sample as a whole holds those more often.
measure: growth inhibition (%)

| compound | u | recorded.number |
| --- | --- | --- |
| O=C1NC(c2cccc3ccccc23)Nc2ccccc21 (configuration not stated) | % | 3.05 |
| O=C(OCc1ccccc1)/C(c1ccccc1)=[N+]1/C(=S)Nc2ccc([N+](=O)[O-])cc21 | % | 3 |
| O=C(Cc1cc2ccccc2[nH]c1=O)Nc1ccccc1 | % | 9.55 |
| CNC(=O)C1CCCN1C(=O)C(Cc1cnc[nH]1)NC(=O)C1CCC(=O)N1 (configuration not stated) | % | -21.2 |
| OC1c2ccccc2-c2c(Cl)cc(Cl)cc21 (configuration not stated) | % | 0.25 |
| O=P(O)(c1ccccc1Br)c1ccccc1Br | % | 43.5 |
| Cc1cc2nc(Oc3ccccc3)nc(=O)n2o1 | % | 2.3 |
| CCOC(C)C=O (configuration not stated) | % | -3.85 |
| CC(=O)c1c2c(cc3c1CCC3)CCC2 | % | -15.4 |
| COC(=O)c1nc(N)nc(C(=O)OC)c1C(=O)c1ccc([N+](=O)[O-])cc1 | % | -20.9 |
| NC(=O)CCBr | % | -15.3 |
| COc1ccc(NC(=O)/C(Cc2cc(=O)oc3cc(O)ccc23)=N\NC(C)(C)C)c(OC)c1 | % | -4.4 |
| O=C1OCc2c[n+]([O-])ccc21 | % | -17.4 |
| OCC1NCCCC1O (configuration not stated) | % | -17.5 |
| O=P(O)(O)CCC(O)CO (configuration not stated) | % | -12.5 |
| N#COc1ccc(-c2ccccc2)cc1 | % | -38.5 |
| COC1(c2ccccc2)OC(=O)C(C)(C)c2ccccc21 (configuration not stated) | % | -5.1 |
| COc1cccc(OC(=O)Nc2ccccc2)c1 | % | 2.6 |
| COC(=O)N/N=C(/C)c1ccco1 | % | 8.75 |
| OCCN(CCO)c1nc(N(CCO)CCO)nc(N(CCO)CCO)n1 | % | 19.8 |
| CCCCCCCCCCCCCCCc1nnc(SC)s1 | % | -22.6 |
| CCCCCC(CC)OC(=O)Nc1cccc2ccccc12 (configuration not stated) | % | 6.05 |

----------
experiment: NCI Yeast Anticancer Drug Screen. Data for the rad50 strain (AID 155);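 further: 0% = growth of vehicle-only cultures of the same strain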; conditions: S. cerevisiae rad50 strain growth inhibition; at 50.0 µM; stronger effect = higher value
The panel holds about 79,000 compounds, 15% with a hit somewhere; the sample as a whole holds those more often.

| compound | growth inhibition (%) |
| --- | --- |
| CC1(C)S/C(=C\c2ccccc2)c2nc3ccccc3c(=O)n21 | -6.8 |
| Cc1ccc(S(=O)(=O)OC2C3OC(C)(C)OC3OC2C2CSC(=S)S2)cc1 (stereo not given) | 0.3 |
| N#C/C(=C/N1C(=O)/C(=C/c2ccc([N+](=O)[O-])cc2)SC1=S)C(N)=O | 45 |
| CN(CC(=O)C(O)C(O)C(O)CO)c1ccccc1 (stereo not given) | -10.4 |
| COC(=O)CCNC(=O)OCc1ccccc1 | 14.6 |
| O=C(NN1C(=O)CSC1c1ccccc1F)c1ccncc1 (stereo not given) | 11.2 |
| Cc1cccc2c(SCCCCCCSc3c4ccccc4nc4c(C)cccc34)c3ccccc3nc12 | -2.25 |
| O=C(CO)c1ccc([N+](=O)[O-])cc1 | 16.8 |
| O=c1oc(=O)c2c1ccc1c2cc2ccc3cccc4ccc1c2c34 | -17.9 |
| CC(=O)C1=CN(C)c2ccccc2S1 | 29.6 |
